# System Name: T1, human Y2 receptor (human, UniProt P49146 1-381)
# T1 construct: whole, on cells; used as membrane fraction of CHO/dhfr- cells stably expressing hY2R; also called hY2R; human NPY2R
# T1 sequence (looked up): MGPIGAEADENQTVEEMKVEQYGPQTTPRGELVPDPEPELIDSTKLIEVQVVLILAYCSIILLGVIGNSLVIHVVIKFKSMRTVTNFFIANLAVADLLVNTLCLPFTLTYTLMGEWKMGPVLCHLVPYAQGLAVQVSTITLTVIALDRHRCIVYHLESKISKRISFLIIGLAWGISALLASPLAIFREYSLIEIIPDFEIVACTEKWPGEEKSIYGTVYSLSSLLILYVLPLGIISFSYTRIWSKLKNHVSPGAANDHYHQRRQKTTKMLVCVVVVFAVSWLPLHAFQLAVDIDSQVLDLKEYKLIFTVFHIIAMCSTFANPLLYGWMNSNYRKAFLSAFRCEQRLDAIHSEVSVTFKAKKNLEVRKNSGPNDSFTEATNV
# Assay Explanation: RBA: displacement of [125I]-PYY from hY2R/CHO membranes
Non-standard residues stand in square brackets, D forms with d. No end group written: not given here. 4Amb = NCc1ccc(C(=O)O)cc1; Abu = CC[C@H](N)C(=O)O
Metric: IC50 Ratio

IN: Look up IC50 Ratio for this binder: [4Amb]RAYINLI[Abu]RQRY-NH2 (N-terminus assumed; SMILES CC[C@H](NC(=O)[C@@H](NC(=O)[C@H](CC(C)C)NC(=O)[C@H](CC(N)=O)NC(=O)[C@@H](NC(=O)[C@H](Cc1ccc(O)cc1)NC(=O)[C@H](C)NC(=O)[C@H](CCCNC(=N)N)NC(=O)c1ccc(CN)cc1)[C@@H](C)CC)[C@@H](C)CC)C(=O)N[C@@H](CCCNC(=N)N)C(=O)N[C@@H](CCC(N)=O)C(=O)N[C@@H](CCCNC(=N)N)C(=O)N[C@@H](Cc1ccc(O)cc1)C(N)=O, also called compound No. 354) [4-Aminomethylbenzoyl-[Ala26, ILe28,31, Abu32]-PYY(25-36)]
OUT: 68 IC50 compound/IC50 PYY(3-36)
